targetOrSystem: Dual specificity protein kinase CLK1 (Mus musculus)
Sequence (P22518 whole entry): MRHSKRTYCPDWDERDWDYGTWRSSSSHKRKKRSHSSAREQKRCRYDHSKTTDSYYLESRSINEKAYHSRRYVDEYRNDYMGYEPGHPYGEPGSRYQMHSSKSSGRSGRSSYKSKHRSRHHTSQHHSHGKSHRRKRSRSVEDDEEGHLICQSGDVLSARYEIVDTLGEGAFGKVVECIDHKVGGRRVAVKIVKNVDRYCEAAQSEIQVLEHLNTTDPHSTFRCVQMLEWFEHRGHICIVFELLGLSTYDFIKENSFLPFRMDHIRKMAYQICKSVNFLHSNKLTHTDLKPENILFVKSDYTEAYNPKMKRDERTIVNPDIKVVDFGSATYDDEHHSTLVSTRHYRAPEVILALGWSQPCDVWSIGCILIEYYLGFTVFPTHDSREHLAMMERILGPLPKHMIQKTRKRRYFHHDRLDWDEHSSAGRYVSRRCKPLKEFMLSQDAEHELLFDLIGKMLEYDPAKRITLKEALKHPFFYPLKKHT
testDetails: Inhibition of mouse recombinant GST-tagged CLK1 using GRSRSRSRSRSR as substrate
Recorded measurements of IC50, one per entry
reportedProperty: IC50 (nM)

INSERT INTO assay_data (entrysmiles, unitabbrev, comparativesign, result) VALUES
  ('CN1C(=O)/C(=C/c2ccc3c(c2)OCO3)N=C1NC1CCCC1', 'nM', '=', 140),
  ('CN1C(=O)/C(=C/c2ccc3c(c2)OCO3)N=C1Nc1ccc(O)cc1', 'nM', '=', 1000),
  ('CNC1=N/C(=C\c2ccc3c(c2)OCO3)C(=O)N1C', 'nM', '=', 770),
  ('CCCCNC1=N/C(=C\c2ccc3c(c2)OCO3)C(=O)N1C', 'nM', '=', 130),
  ('O=C1NC(Nc2ccccc2)=N/C1=C\c1ccc2c(c1)OCO2', 'nM', '=', 15),
  ('CN1C(=O)/C(=C/c2ccc3c(c2)OCO3)N=C1NCCN1CCOCC1', 'nM', '=', 80),
  ('CCNC1=N/C(=C\c2ccc3c(c2)OCO3)C(=O)N1', 'nM', '=', 400),
  ('COc1ccc(NC2=N/C(=C\c3ccc4c(c3)OCO4)C(=O)N2)cc1', 'nM', '=', 830),
  ('CN1C(=O)/C(=C/c2ccc3c(c2)OCO3)N=C1N', 'nM', '=', 400),
  ('CN1C(=O)/C(=C/c2ccc3c(c2)OCO3)N=C1NCCN', 'nM', '=', 190),
  ('CCCNC1=N/C(=C\c2ccccc2O)C(=O)N1C', 'nM', '>', 10000);
